assay: gradient 5% acetonitrile 3 min, to 50% in 2 min, to 85% in 15 min, held 3 min, 100 µL/min; details: column: Zorbax Extend-C18 2.1 x 50 mm; eluents: water / acetonitrile, 0.1% formic acid
measurement_type: RP-LC retention time (s)

compound: O=C(O)[C@H](CC(=O)N1C[C@H]2CCCC[C@H]2C1)Cc1ccccc1
measurement_type: RP-LC retention time
endpoint_value: 915
--
compound: Cc1ccc(NC(=O)C2CCCN2S(=O)(=O)c2cc3c(cc2C)NC(=O)CO3)cc1Cl (centres undefined)
measurement_type: RP-LC retention time
endpoint_value: 791
--
compound: O=C(Cc1nnc(-c2cccc(F)c2)o1)NCC1CC1
measurement_type: RP-LC retention time
endpoint_value: 722
--
compound: CCCS(=O)(=O)N1CCCc2ccc(NC(=O)NC3CCCCC3)cc21
measurement_type: RP-LC retention time
endpoint_value: 882
--
compound: COc1ccc(C2CCCN2C(=O)c2cc(-c3ccco3)on2)cc1 (centres undefined)
measurement_type: RP-LC retention time
endpoint_value: 961
--
compound: O=C(c1ccc2c(c1)OCO2)N1CCCn2nc(-c3ccncc3)cc2C1
measurement_type: RP-LC retention time
endpoint_value: 584
--
compound: Cn1nc(CN2CCCC2)c2c1CCN(S(=O)(=O)c1ccccc1C(F)(F)F)C2
measurement_type: RP-LC retention time
endpoint_value: 655
--
compound: O=C(COc1ccc(-c2nnc3n2CCCC3)cc1)Nc1ccc(Br)cc1
measurement_type: RP-LC retention time
endpoint_value: 734
--
compound: COc1ccccc1-c1nnc(-c2ccc(C)c(S(=O)(=O)N3CCC(C)CC3)c2)o1
measurement_type: RP-LC retention time
endpoint_value: 1150
--
compound: COC(=O)c1sc2ccc(NC(=O)C3CCN(S(=O)(=O)N4CCOCC4)CC3)cc2c1OC
measurement_type: RP-LC retention time
endpoint_value: 853
--
compound: CCOc1ccc(C(=O)N2C[C@H](c3nc(-c4ccccc4)no3)[C@@H](C)C2)cc1
measurement_type: RP-LC retention time
endpoint_value: 1070
--
compound: Cc1nc(-c2ccc(S(=O)(=O)N3CCN(c4ccc(N5CCOCC5)nn4)CC3)cc2)co1
measurement_type: RP-LC retention time
endpoint_value: 644
--
compound: CCC1=C(c2ccc(C)cc2)S(=O)(=O)N=C1N1CCC(C(=O)N2CCN(C)CC2)CC1
measurement_type: RP-LC retention time
endpoint_value: 641
--
compound: Cc1nc2ncnn2c(N2CCC(C)CC2)c1C
measurement_type: RP-LC retention time
endpoint_value: 1020
--
compound: O=c1n(CCc2ccccc2)nc2c(S(=O)(=O)N3CCN(c4ccc(F)cc4)CC3)cccn12
measurement_type: RP-LC retention time
endpoint_value: 989
--
compound: CCc1noc(NC(C)=O)c1-c1ccc(C)c(S(=O)(=O)N2CCc3ccccc32)c1
measurement_type: RP-LC retention time
endpoint_value: 920
--
compound: CCN(CC)c1nc(NC)nc(-n2cnc(SC)n2)n1
measurement_type: RP-LC retention time
endpoint_value: 897
--
compound: Cc1nc(-c2noc(-c3ccccc3)n2)cn1CC(=O)NCc1ccccc1
measurement_type: RP-LC retention time
endpoint_value: 810
--
compound: CCC(C)NC(=O)NCCC1CCN(S(=O)(=O)c2ccc(F)cc2)CC1 (centres undefined)
measurement_type: RP-LC retention time
endpoint_value: 814
